Where do these numbers come from? They come from paper PMC11124136.

System: Vero-E6 GFP cells
Test Name: in vitro
Assay type: cell-based
Run Parameters: concentration reducing Vero E6-GFP viability by 50%; 2 μM CP-100356, 24 h; read-out: CC50 +CP_100356
Measured Quantity: CC50

Value wanted: CC50 (Vero-E6 GFP cells) of entry CC(C)C[C@H](NC(=O)OCc1ccccc1)C(=O)N[C@@H](CC1CCNC1=O)C(O)S(=O)(=O)O (stereo partly shown) [GC376, reference compound]
> 100 µM

====

Test Name: in vitro
Format: cell-based
Run Parameters: African green monkey
Measured Quantity: CC50 at 24 h

Check out these entries, answers already filled in.
Compound	CC50 at 24 h
O=C1CSC(c2ccc([N+](=O)[O-])cc2)N1CCc1ccccc1Cl (stereo not drawn)	> 100 µM
O=C1CSC(c2ccc([N+](=O)[O-])cc2)N1CCc1ccc(Cl)cc1 (stereo not drawn)	> 100 µM

We next turn to a different compound, shown below.
Which CC50 at 24 h value belongs to O=C1CSC(c2ccc([N+](=O)[O-])cc2)N1CCc1ccccc1 (stereo not drawn) ?
> 100 µM
